# System: KOSC-2;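 further: growth inhibition of KOSC-2 cells, read out by a cell viability assay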
# Protocol summary: cells
# Format: functional, cell-based, Homo sapiens
# Experimental parameters: kosc-2
# Description: SANGER: Inhibition of human KOSC-2 cell growth in a cell viability assay.
pIC50: −log10 of the molar value.
Metric name: pIC50

primary_sequence=CISPLATIN measured_target=KOSC-2 observed_result=5.54

* * *

Overview of recorded IC50 for various molecules
# Tested on: U-251;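 further: growth inhibition of human U-251 cells, read out through a cell viability assay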
# Protocol summary: cells
# Assay type: functional, cell-based, Homo sapiens
# Experimental parameters: Homo sapiens, U-251
# Description: SANGER: Inhibition of human U251 cell growth in a cell viability assay.
Metric name: IC50

chemical_smiles=O=C(O)c1ccc(-c2c[nH]c3ncc(-c4ccccc4)cc23)cc1C1CCCC1 measured_target=U-251 observed_result="> 16000 nM"
chemical_smiles=CCC/C=C/C=C/C(=O)O[C@H]1/C(=C/C(=O)OC)C[C@H]2C[C@H]([C@@H](C)O)OC(=O)C[C@H](O)C[C@@H]3C[C@H](OC(C)=O)C(C)(C)[C@](O)(C[C@@H]4C/C(=C/C(=O)OC)C[C@H](/C=C/C(C)(C)[C@]1(O)O2)O4)O3 measured_target=U-251 observed_result="> 8 nM"
chemical_smiles=CC1(C)CNc2cc(NC(=O)c3cccnc3NCc3ccncc3)ccc21 measured_target=U-251 observed_result="> 2000 nM"
chemical_smiles=CO[C@H]1C[C@@H]2CC[C@@H](C)[C@@](O)(O2)C(=O)C(=O)N2CCCC[C@H]2C(=O)O[C@H]([C@H](C)C[C@@H]2CC[C@@H](OC(=O)C(C)(CO)CO)[C@H](OC)C2)CC(=O)[C@H](C)/C=C(\C)[C@@H](O)[C@@H](OC)C(=O)[C@H](C)C[C@H](C)/C=C/C=C/C=C/1C measured_target=U-251 observed_result="> 200 nM"

* * *

# Tested on: CAL-51;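 further: human CAL-51 cell line, growth inhibition read out via a cell viability assay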
# Protocol summary: cells
# Type: functional, cell-based, Homo sapiens
# Experimental parameters: Homo sapiens, CAL-51
# Description: SANGER: Inhibition of human CAL-51 cell growth in a cell viability assay.
pIC50: −log10 of the molar value.
Metric name: pIC50

chemical_smiles=CO[C@H]1C[C@@H]2CC[C@@H](C)[C@@](O)(O2)C(=O)C(=O)N2CCCC[C@H]2C(=O)O[C@H]([C@H](C)C[C@@H]2CC[C@@H](OC(=O)C(C)(CO)CO)[C@H](OC)C2)CC(=O)[C@H](C)/C=C(\C)[C@@H](O)[C@@H](OC)C(=O)[C@H](C)C[C@H](C)/C=C/C=C/C=C/1C measured_target=CAL-51 metric_name=pIC50 rel=< observed_result=6.70
chemical_smiles=Cc1cc([N+](=O)[O-])ccc1NS(=O)(=O)c1cc(Cl)ccc1Cl measured_target=CAL-51 metric_name=pIC50 rel== observed_result=5.56
chemical_smiles=CC(C)c1ccccc1Cc1cc(C(=O)Nc2ccc(S(=O)(=O)c3ccccc3C(C)(C)C)cc2)c(O)c(O)c1O measured_target=CAL-51 metric_name=pIC50 rel== observed_result=6.46
chemical_smiles=Nc1ccn([C@@H]2O[C@H](CO)[C@@H](O)C2(F)F)c(=O)n1 measured_target=CAL-51 metric_name=pIC50 rel== observed_result=6.72
chemical_smiles=CCC/C=C/C=C/C(=O)O[C@H]1/C(=C/C(=O)OC)C[C@H]2C[C@H]([C@@H](C)O)OC(=O)C[C@H](O)C[C@@H]3C[C@H](OC(C)=O)C(C)(C)[C@](O)(C[C@@H]4C/C(=C/C(=O)OC)C[C@H](/C=C/C(C)(C)[C@]1(O)O2)O4)O3 measured_target=CAL-51 metric_name=pIC50 rel=< observed_result=8.10
chemical_smiles=N#Cc1c(O)c2c(-c3ccc(-c4ccccc4O)cc3)csc2[nH]c1=O measured_target=CAL-51 metric_name=pIC50 rel=< observed_result=5.99

* * *

# Tested on: NCI-H23;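 further: cell viability assay measuring growth inhibition of NCI-H23 cells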
# Protocol summary: cells
# Assay type: functional, cell-based, Homo sapiens
# Experimental parameters: nci-h23
# Description: SANGER: Inhibition of human NCI-H23 cell growth in a cell viability assay.
pIC50: −log10 of the molar value.
Metric name: pIC50

primary_sequence=CISPLATIN observed_result=4.40

* * *

# Tested on: DMS-53;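 further: cell viability assay measuring growth inhibition of human DMS-53 cells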
# Protocol summary: cells
# Assay type: functional, cell-based, Homo sapiens
# Experimental parameters: Homo sapiens, DMS-53
# Description: SANGER: Inhibition of human DMS-53 cell growth in a cell viability assay.
Below: a set of entries, each annotated with reported IC50.
Metric name: IC50 (µM)

chemical_smiles=CCC/C=C/C=C/C(=O)O[C@H]1/C(=C/C(=O)OC)C[C@H]2C[C@H]([C@@H](C)O)OC(=O)C[C@H](O)C[C@@H]3C[C@H](OC(C)=O)C(C)(C)[C@](O)(C[C@@H]4C/C(=C/C(=O)OC)C[C@H](/C=C/C(C)(C)[C@]1(O)O2)O4)O3 metric_name=IC50 rel=> observed_result=0.008
chemical_smiles=CC(C)c1ccccc1Cc1cc(C(=O)Nc2ccc(S(=O)(=O)c3ccccc3C(C)(C)C)cc2)c(O)c(O)c1O metric_name=IC50 rel== observed_result=1.32
chemical_smiles=Cc1cc([N+](=O)[O-])ccc1NS(=O)(=O)c1cc(Cl)ccc1Cl metric_name=IC50 rel== observed_result=1.1
chemical_smiles=C=C(c1ccc(C(=O)O)cc1)c1cc2c(cc1C)C(C)(C)CCC2(C)C metric_name=IC50 rel=> observed_result=8

* * *

Examples of compounds with documented pIC50 follow.
# Test system: IM-9
# Protocol summary: SANGER: Inhibition of human IM-9 cell growth in a cell viability assay.
# Assay type: functional, cell-based
# Experimental parameters: Homo sapiens, IM-9
pIC50: −log10 of the molar value.
Metric name: pIC50

compound=Cc1ccc(-c2c(C(=O)CCl)n(CCCO)c3ncnc(N)c23)cc1 measured_target=IM-9 observed_result="< 5.40"
compound=CCN(CC)CCNC(=O)c1c(C)[nH]c(/C=C2\C(=O)Nc3ccc(F)cc32)c1C measured_target=IM-9 observed_result="< 5.10"
compound=Cc1cc([N+](=O)[O-])ccc1NS(=O)(=O)c1cc(Cl)ccc1Cl measured_target=IM-9 observed_result=4.85
compound=COc1cc(N2CCN(C)CC2)ccc1Nc1ncc2c(n1)N(C)c1ccccc1C(=O)N2C measured_target=IM-9 observed_result="< 5.10"
compound=Oc1ccc2ccccc2c1SSc1c(O)ccc2ccccc12 measured_target=IM-9 observed_result=5.10
compound="COc1cc2ncn(-c3cc(OCc4ccccc4C(F)(F)F)c(C(N)=O)s3)c2cc1OC [GW843682X]" measured_target=IM-9 observed_result="< 6.59"
compound=CC(=O)O[C@H]1C(=O)[C@@]2(C)[C@H]([C@H](OC(=O)c3ccccc3)[C@]3(O)C[C@H](OC(=O)[C@H](O)[C@@H](NC(=O)c4ccccc4)c4ccccc4)C(C)=C1C3(C)C)[C@]1(OC(C)=O)CO[C@@H]1C[C@@H]2O measured_target=IM-9 observed_result="< 6.99"
compound=COc1cccc2c1C(=O)c1c(O)c3c(c(O)c1C2=O)C[C@@](O)(C(=O)CO)C[C@@H]3O[C@H]1C[C@H](N)[C@H](O)[C@H](C)O1 measured_target=IM-9 observed_result=7.29
compound=COc1cc(-c2nn([C@H]3CC[C@H](N4CCN(C(C)=O)CC4)CC3)c3ncnc(N)c23)ccc1NC(=O)c1cc2ccccc2n1C measured_target=IM-9 observed_result="< 5.29"
compound=O=C(O)c1ccc(-c2c[nH]c3ncc(-c4ccccc4)cc23)cc1C1CCCC1 measured_target=IM-9 observed_result="< 4.80"

* * *

# System: UACC-257
# Protocol summary: cells
# Type: functional, cell-based, Homo sapiens
# Experimental parameters: Homo sapiens, UACC-257
# Description: SANGER: Inhibition of human UACC-257 cell growth in a cell viability assay.
Catalogue of IC50 readings, one per entry.
Metric name: IC50

compound=O=C(O)c1ccc(-c2c[nH]c3ncc(-c4ccccc4)cc23)cc1C1CCCC1 observed_result="> 16 µM"
compound=N[C@@H](CSC(c1ccccc1)(c1ccccc1)c1ccccc1)C(=O)O observed_result="> 5.12 µM"
compound=CCN(CC)CCNC(=O)c1c(C)[nH]c(/C=C2\C(=O)Nc3ccc(F)cc32)c1C observed_result="> 8 µM"
compound=COc1cccc2c1C(=O)c1c(O)c3c(c(O)c1C2=O)C[C@@](O)(C(=O)CO)C[C@@H]3O[C@H]1C[C@H](N)[C@H](O)[C@H](C)O1 observed_result="0.362 µM"
compound="Nc1cccc2c1CN(C1CCC(=O)NC1=O)C2=O (stereo not drawn) [LENALIDOMIDE]" observed_result="> 5 µM"
compound=CN(C)C(=N)NC(=N)N observed_result="13900 µM"
compound="COc1cc2ncn(-c3cc(OCc4ccccc4C(F)(F)F)c(C(N)=O)s3)c2cc1OC [GW843682X]" observed_result="0.13 µM"
compound=CCC/C=C/C=C/C(=O)O[C@H]1/C(=C/C(=O)OC)C[C@H]2C[C@H]([C@@H](C)O)OC(=O)C[C@H](O)C[C@@H]3C[C@H](OC(C)=O)C(C)(C)[C@](O)(C[C@@H]4C/C(=C/C(=O)OC)C[C@H](/C=C/C(C)(C)[C@]1(O)O2)O4)O3 observed_result="> 0.008 µM"

* * *

# Tested on: EPLC-272H
# Protocol summary: cells
# Format: functional, cell-based, Homo sapiens
# Experimental parameters: Homo sapiens, EPLC-272H
# Description: SANGER: Inhibition of human EPLC-272H cell growth in a cell viability assay.
Metric name: IC50

compound=CN(C)C(=N)NC(=N)N observed_result="> 20000 µM"
compound="Nc1cccc2c1CN(C1CCC(=O)NC1=O)C2=O (stereo not given) [LENALIDOMIDE]" observed_result="> 5 µM"
compound=COc1cc2c(Nc3ccc(NC(=O)c4ccccc4)cc3)ncnc2cc1OCCCN1CCOCC1 observed_result="> 4 µM"
compound=CS(=O)(=O)c1ccc(C(=O)Nc2ccc(Cl)c(-c3ccccn3)c2)c(Cl)c1 observed_result="> 10 µM"
compound=Cn1cnc2c(F)c(Nc3ccc(Br)cc3Cl)c(C(=O)NOCCO)cc21 observed_result="> 4 µM"
